System: human erythrocytes
Assay: Detection and quantification of MetHb formation in cultured erythrocytes
Type: cell-based
Details: MetHb formation, with pyruvate; 500 = highest concentration tested; read-out: MetHb EC50 + pyruvate (Supplemental Table 4)
pEC50: −log10 of the molar value.
Test Readout: pEC50

For this compound ( CC(C)OC(=O)C(C)NP(=O)(NC(C)C(=O)OC(C)C)C1CCCN(O)C1=O (centres unmarked) ), measured pEC50 is < 3.30

response.value for CC(C)OC(=O)OCOP(=O)(OCOC(=O)OC(C)C)C1CCCN(O)C1=O (centres unmarked) (field: pEC50) = 6.31

Lab note: O=C1C(P(=O)(O)O)CCN1O (centres unmarked) gave pEC50 of < 3.30

The recorded pEC50 for entry O=C1C(P(=O)(O)O)CC(O)N1O (centres unmarked) [SF-2312, reference compound] equals < 3.30

Kindly note the recorded pEC50 for O=C1C(P2(=O)NCCCO2)CCCN1O (centres unmarked) , which is < 3.30

Lab note: CC1(P(=O)(O)O)CC(O)N(O)C1=O (centres unmarked) gave pEC50 of < 3.30

Sample CC(=O)ON1CCCC(P(=O)(OCOC(=O)C(C)(C)C)OCOC(=O)C(C)(C)C)C1=O (centres unmarked) ; pEC50 observed: 5.60

The reported value for CC(C)OC(=O)C(C)NP(=O)(Oc1ccccc1)C1CCCN(O)C1=O (centres unmarked) in terms of pEC50 is < 3.30
